# Tested on: Plasmopara viticola
# assay-remarks: Plasmopara test (grapevines)/preventive
# Format: in vivo
# run-conditions: preventive spray, 10 ppm of active ingredient, evaluated 6 days after inoculation
# Method: Solvent: 24.5 parts by weight of acetone • 24.5 parts by weight of dimethylacetamide Emulsifier: 1 part by weight of alkylaryl polyglycol ether To produce a suitable preparation of active compound, 1 part by weight of active compound is mixed with the stated amounts of solvent and emulsifier, and the concentrate is diluted with water to the desired concentration. […] The test is evaluated 6 days after the inoculation. […]
endpoint-name: Eff. %

Tell me the measured Eff. % of CCCCCCC(=O)Nc1nc(CO/N=C(/c2ccccc2)c2noc(=O)n2C)cs1 , please.
94%

Please look up its Eff. %: CCOCC(C)OC(=O)Nc1cccc(CO/N=C(/c2ccccc2)c2noc(=O)n2C)n1 (centres unmarked)
100%

// returns reported Eff. % for input CCCC(C)C(=O)Nc1cccc(CON=C(c2ccccc2)c2noc(=O)n2C)n1 (centres unmarked)
85%

Value lookup for Eff. %; key = COc1cccc(OC(C)C(=O)Nc2nc(CO/N=C(/c3ccccc3)c3noc(=O)n3C)cs2)c1 (centres unmarked)
95%

Which value of Eff. % has been reported for Cc1ccc(C)c(C(=O)Nc2cccc(CO/N=C(/c3ccccc3)c3noc(=O)n3C)n2)c1 in the records?
95%

I'd like to know its Eff. %. The compound in question is CCCCCCC(=O)Nc1cccc(CO/N=C(/c2ccccc2)c2noc(=O)n2C)n1
99%

Would you kindly share the measured Eff. % for Cn1c(/C(=N\OCc2csc(NC(=O)C3COc4ccccc4O3)n2)c2ccccc2)noc1=O (centres unmarked) ?
96%

Bench note: what Eff. % did CC(C)CCC(=O)Nc1cccc(CO/N=C(/c2ccccc2)c2noc(=O)n2C)n1 show?
91%

====

# Tested on: Mycosphaerella graminicola
# assay-remarks: In vivo test on Mycosphaerella graminicola (wheat leaf spot)
# run-conditions: wheat plants, spray, 500 ppm, grading 21 to 28 days after contamination
Where Eff. % equals or exceeds 90%, the correct label is Y; where it does not, the label is N.

Quick check: does CCCC(C)C(=O)Nc1cccc(CON=C(c2ccccc2)c2noc(=O)n2C)n1 (centres unmarked) [Example 248] have Eff. % greater than or equal to 90%?
N

Form field: Eff. % at least 90%? Entry: Cc1cccc(/C(=N/OCc2cccc(NC(=O)OC(C)CC(C)C)n2)c2noc(=O)n2C)c1 (centres unmarked) [Example 223]
N

Item Cn1c(/C(=N\OCc2cccc(NC(=O)CCC3CCCCC3)n2)c2ccccc2)noc1=O [Example 77] with Eff. % of 90% or above?
N

Is Eff. % at least 90%? Consider Cn1c(/C(=N\OCc2csc(NC(=O)c3ccccc3Cl)n2)c2ccccc2)noc1=O [Example 57]
N

Quick check, Eff. % >= 90%? Cn1c(/C(=N\OCc2cccc(NC(=O)Cc3ccccc3)n2)c2ccccc2)noc1=O [Example 341]
N

Threshold query (Eff. % >= 90%) on COc1cccc(/C(=N/OCc2cccc(N)n2)c2noc(=O)n2C)c1 [Example 108]
N

Quick check, Eff. % >= 90%? CCN(CC)c1cccc(CO/N=C(/c2ccccc2)c2noc(=O)n2C)n1 [Example 197]
Y

Threshold query (Eff. % >= 90%) on C#CCCC(C)OC(=O)Nc1cccc(CO/N=C(/c2ccccc2)c2noc(=O)n2CC)n1 (centres unmarked) [Example 207]
N

Tell me whether Eff. % is at least 90% here: CCCCCC(=O)Nc1cccc(CO/N=C(/c2ccccc2)c2noc(=O)n2C)n1 [Example 111]
Y

API: above_or_equal(metric=Eff. %, cutoff=90%) for item CCCCC(=O)Nc1cccc(CO/N=C(/c2cccc(C)c2)c2noc(=O)n2C)n1 [Example 384]
N

Given the entry Cn1c(/C(=N\OCc2cccc(N)n2)c2cccc(F)c2)noc1=O [Example 83] , answer whether its Eff. % meets or surpasses 90%.
Y

Decide: Eff. % of CCCC(C)C(=O)Nc1cccc(CO/N=C(/c2ccccc2)c2noc(=O)n2CC)n1 (centres unmarked) [Example 172] >= 90%?
N

Does the compound CCn1c(/C(=N\OCc2cccc(NC(=O)C3COc4ccccc4O3)n2)c2ccccc2)noc1=O (centres unmarked) [Example 130] have recorded Eff. % that is 90% or more?
N

Does Eff. % meet or surpass 90% for Cc1cccc(C(=NOCc2cccc(NC(=O)OC3CCCCC3)n2)c2noc(=O)n2C)c1 [Example 250] ?
Y

Quick check, Eff. % >= 90%? Cn1c(/C(=N\OCc2csc(NC(=O)c3ccccc3I)n2)c2ccccc2)noc1=O [Example 158]
N

Hello, I need to know if Cn1c(/C(=N\OCc2cccc(N(C(=O)Oc3ccc(F)cc3)C(=O)Oc3ccc(F)cc3)n2)c2ccccc2)noc1=O [Example 330] has measured Eff. % not below 90%. Thanks!
N

Record Cc1ccc(/C(=N/OCc2csc(N)n2)c2noc(=O)[nH]2)cc1 [Example 308] ; criterion: Eff. % no lower than 90%. Met?
Y

# bool: Eff. % of Cc1cccc(/C(=N/OCc2cccc(N)n2)c2noc(=O)n2C)c1 [Example 30] >= 90%
N

Does the reported Eff. % for CCn1c(C(=NOCc2cccc(NC(=O)OCCc3ccccc3)n2)c2ccccc2)noc1=O [Example 270] fall at or above the 90% mark?
N

Quick check, Eff. % >= 90%? COc1ccc(OC)c(CC(=O)Nc2cccc(CO/N=C(/c3ccccc3)c3noc(=O)n3C)n2)c1 [Example 190]
Y

Reported Eff. % reaches at least 90% for Cn1c(/C(=N\OCc2cccc(NC(=O)CC(C)(C)C)n2)c2ccccc2)noc1=O [Example 173] ?
N

Check this compound for Eff. % at or above 90%: CCCCCOC(=O)Nc1cccc(CO/N=C(/c2cccc(F)c2)c2noc(=O)n2C)n1 [Example 406]
N

Check the entry COc1cccc(C(=O)Nc2nc(CO/N=C(/c3ccccc3)c3noc(=O)n3C)cs2)c1 [Example 212] : does Eff. % equal or exceed 90%?
Y

====

For each entry below, report its LogP value.
# run-conditions: pH 2.7
Marks after values point to notes of the source that are not given here.

So what does the record say about LogP for Cn1c(/C(=N\OCc2csc(NC(=O)C(F)(F)Oc3ccccc3)n2)c2ccccc2)noc1=O [Example 220] ?
3.89 [a]

What does the data say about its LogP? Entry: CC(C)c1ccc(OC(=O)Nc2cccc(CON=C(c3ccccc3)c3noc(=O)n3C)n2)cc1 [compound 492]
4.67 [a]

// lookup LogP for CCCc1ccccc1OC(=O)Nc1cccc(CO/N=C(/c2ccccc2)c2noc(=O)n2C)n1 [compound 426]
4.54 [a]

Would you mind telling me what LogP value was observed for CC(Oc1ccc(Cl)cc1)C(=O)Nc1nc(CO/N=C(/c2ccccc2)c2noc(=O)n2C)cs1 (stereo not shown) [Example 276] ?
4.07 [a]

Which LogP value belongs to CCCCC(=O)Nc1cccc(CO/N=C(/c2cccc(F)c2)c2noc(=O)n2C)n1 [Example 140] ?
3.61 [a]

I have this compound here, CCCc1cccc(OC(=O)Nc2cccc(CO/N=C(/c3ccccc3)c3noc(=O)n3C)n2)c1 [compound 469] , and I need its recorded LogP.
4.72 [a]

Value lookup for LogP; key = CCCC(C)OC(=O)Nc1cccc(CO/N=C(/c2ccccc2)c2noc(=O)n2C)n1 (stereo not shown) [Example 282]
4.36 [a]

Bench note: what LogP did CCCCOC(C)C(=O)Nc1cccc(CO/N=C(/c2ccccc2)c2noc(=O)n2C)n1 (stereo not shown) [Example 93] show?
4.3 [a]

Quick one: LogP of CC(=O)OC(C)(C)C(=O)Nc1cccc(CO/N=C(/c2ccccc2)c2noc(=O)n2C)n1 [Example 367] ?
3.15 [a]

Returns the measured LogP for the input compound. Input: CCCCC(C)C(=O)Nc1cccc(CON=C(c2ccccc2)c2noc(=O)n2C)n1 (stereo not shown) [Example 244]
4.2 [a]

Look at this compound and give its reported LogP. Cn1c(/C(=N\OCc2cccc(NC(=O)OCCCC3CCCCC3)n2)c2ccccc2)noc1=O [compound 523]
5.71 [a]

Item Cn1c(/C(=N\OCc2cccc(NC(=O)C(C)(C)C)n2)c2cccc(F)c2)noc1=O [Example 139] has what recorded LogP?
3.61 [a]

Returns the measured LogP for the input compound. Input: CC(C)CCOC(=O)Nc1nc(CO/N=C(/c2ccccc2)c2noc(=O)n2C)cs1 [Example 47]
4.06 [a]

Quick check: LogP of CCOC(=O)COC(=O)Nc1cccc(CO/N=C(/c2ccccc2)c2noc(=O)n2C)n1 [compound 554] ?
3.21 [a]

Look up LogP for this compound: COc1ccc(COC(=O)Nc2cccc(CO/N=C(/c3ccccc3)c3noc(=O)n3C)n2)cc1 [compound 450]
3.92 [a]

Tell me the measured LogP of Cn1c(/C(=N\OCc2csc(NC(=O)C3COc4ccccc4O3)n2)c2ccccc2Cl)noc1=O (stereo not shown) [Example 442] , please.
3.73 [a]
